Test protocol: binders from COS7 lysate, DM2A8 probe, primary screen, torsin A project, cell lysate, small-molecule microarray, fluorescence 635/667 (AID 1065)
Study conditions: higher = more signal, COS7 lysate expressing mutant human TOR1A
Known composite z-score of a selection of compounds
Metric: composite z-score

Compound | Recorded measurement
C[C@]1(C(=O)O)c2ccccc2C(=O)N(Cc2ccc(OC(F)(F)F)cc2)[C@H]1c1ccc(CO)cc1 | -0.139
C[C@@]12COC[C@]13C=C(Br)[C@H](C2)[C@@]1(CO1)C3=O | -1.21
COCC1=C2[C@@H](CCc3ccccc3)OB(O)C[C@@H]2[C@@H]2C(=O)N(C)C(=O)[C@@H]2C1 | 0.0288
CC(=O)n1cc(C(O)C2C=CC3C(=O)N(c4ccccc4)C(=O)C3N2Nc2ccc(C(C)C)cc2)c2ccccc21 (stereo not given) | 0.249
C=C(CCCC)C(=O)CC[C@H](OC(C)=O)c1ccc(OCCO)cc1 | -0.0212
C=CCC(OC(C)=O)[C@@H]1[C@@H](N(Cc2cccc3ccccc23)C(=O)c2ccc(-c3ccccc3)cc2)c2cc(OCCCO)ccc2N1C(=O)c1ccc(-c2ccccc2)cc1 (stereo not given in full) | 0.356
CCCNC(=O)[C@@]1(C)c2ccccc2C(=O)N(Cc2ccccc2)[C@H]1c1ccc(CO)cc1 | -0.685
CC(C)CNC(=O)[C@@]1(c2ccc([N+](=O)[O-])cc2)CC(=O)N(C2CCCCC2)[C@@H]1c1ccc(CO)cc1 | 0.219
C=C[C@@H](C)[C@@H](OC(=O)Nc1ccc(SC)cc1)c1ccc(OCCO)cc1 | 0.81
[N-]=[N+]=NCc1ccccc1C[C@@]1(C(=O)N2CCCCC2)N=C(c2ccc(OCCCO)cc2)O[C@@H]1c1ccccc1CN=[N+]=[N-] | 1.42
COC(=O)[C@@]1(Cc2ccc(OC)cc2)[C@H]2c3cc(C(=O)N4CCCC4)n(Cc4ccc(S(C)(=O)=O)cc4)c3C[C@H]2CN1C(=O)c1ccccc1 | -0.208
COCCOC(=O)N1C(=O)[C@@]2(c3cc(C#CCNC(N)=O)ccc31)[C@H](c1ccc(O)cc1)N1[C@H](c3ccccc3)[C@H](c3ccccc3)OC(=O)[C@H]1[C@@H]2C(N)=O | -0.412
CCOC(=O)C1=CCC(c2ccco2)N(S(=O)(=O)c2ccc(C)cc2)C1 (stereo not given) | -0.0497
C=C(CCCC)C(=O)CC[C@@H](OC(=O)c1cccnc1)c1ccc(OCCO)cc1 | 0.887
C=C(COC)C(=O)CC[C@H](OC(C)=O)c1ccc(OCCO)cc1 | -0.722

* * *

Test protocol: PSAC antagonists in infected red cells, primary screen, cell-based, P. falciparum Indochina, OD700, 2 h (AID 1155);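 note: lysis reports solute entry through the parasite surface anion channel PSAC; channel blockers reduce lysis of infected cells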
Study conditions: P. falciparum Indochina infected erythrocytes, osmotic lysis OD700, called active from +8 up or from −8 down
The source made the active and inactive calls.
Possible outcomes: active, inactive

Compound | Class name
CN1C(=O)C2C(C1=O)C1C=C(CCCO)C2C(c2cccs2)N1Cc1cc2c(cc1Br)OCO2 (stereo unspecified) | active
C=CC1c2cc(O)c(OC)cc2CCN1Cc1ccc([N+](=O)[O-])o1 (stereo unspecified) | inactive
COC(=O)C1=CC(CCCO)=CC(C)N(Cc2cccc(OC(F)(F)F)c2)C=C1C(=O)OC (stereo unspecified) | inactive
O=C1[C@@]23C=C(Br)[C@H](C[C@@H]2COC3)[C@@]12CO2 | inactive
COc1ccc(C(O)C2C=CC3C(=O)N(c4ccccc4)C(=O)C3N2Nc2ccccc2)cc1 (stereo unspecified) | inactive
CC1CC/C=C\[C@H]2OC34C=CCN(C(C)(C)C)C(=O)[C@H]3N(C(CO)C(C)C)C(=O)[C@@H]4C2C(=O)O1 (stereo partly specified) | inactive
COc1ccc(C(=O)Nc2cccc(CN3C(=O)[C@@]4(O[C@@H](CC(=O)N(CCO)Cc5ccccc5)[C@H]([Si](C)(C)c5ccc(OC)cc5)[C@H]4C)c4ccccc43)c2)cc1 | inactive
C=C(C(=O)CC[C@@H](OC(=O)c1ccccc1-c1ccccc1C(=O)O)c1ccccc1OCCO)C(C)C | inactive
COCCOC(=O)N1C(=O)[C@@]2(c3cc(C#CCCO)ccc31)[C@H](c1ccccc1OCCO)N1[C@H](c3ccccc3)[C@H](c3ccccc3)OC(=O)[C@H]1[C@@H]2C(=O)N1CCCCCCC1 | inactive
CC(C)OC(=O)CC(=O)CC(O)c1ccc([N+](=O)[O-])cc1 (stereo unspecified) | inactive
CCOC(=O)C[C@H]1[C@H](OC(=O)c2ccccc2-c2ccccc2)[C@@H](NC(=O)c2ccccc2)c2cc(OCCCO)ccc2N1C(=O)c1ccccc1 | inactive
COc1ccc([Si](C)(C)[C@H]2[C@H](CC(=O)N3CCC[C@H]3CO)O[C@@]3(C(=O)N(Cc4ccc(N5CCC5=O)cc4)c4ccccc43)[C@@H]2C)cc1 | inactive
CC(C)C(=C=CC[C@H](O)c1cccc(OCCO)c1)CCO | inactive
COCCOC(=O)N1C(=O)[C@@]2(c3ccccc31)[C@H](c1ccccc1OCCO)N1[C@H](c3ccccc3)[C@H](c3ccccc3)OC(=O)[C@H]1[C@@H]2C(N)=O | inactive
COCC1C2CC[C@H]3C(OCc4ccc(OC)cc4)OC[C@]4(C)[C@H]3C2=C(CN4C(=O)OC(C)(C)C)[C@H](C)C1COC (stereo partly specified) | inactive
O=C1N[C@@H](Cc2ccccc2)C(=O)N2[C@@H]1C[C@@H](C(=O)O)[C@H]2c1ccc(O)cc1 | inactive

* * *

The entries below come with measured z-score values attached.
Assayed system: Homeobox protein Hox-A13 (Mus musculus) (UniProt Q62424)
Sequence (Q62424 whole entry, looked up): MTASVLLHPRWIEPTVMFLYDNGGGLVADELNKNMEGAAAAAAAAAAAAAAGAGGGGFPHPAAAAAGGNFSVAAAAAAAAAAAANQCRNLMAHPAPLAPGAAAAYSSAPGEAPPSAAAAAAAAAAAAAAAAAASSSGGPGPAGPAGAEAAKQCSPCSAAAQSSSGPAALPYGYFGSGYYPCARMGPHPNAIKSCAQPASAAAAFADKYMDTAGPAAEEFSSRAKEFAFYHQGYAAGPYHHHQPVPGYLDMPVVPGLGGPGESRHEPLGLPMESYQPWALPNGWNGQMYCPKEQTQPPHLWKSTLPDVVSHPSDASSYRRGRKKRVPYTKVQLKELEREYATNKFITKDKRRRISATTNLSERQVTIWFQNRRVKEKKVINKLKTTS
Test protocol: inhibitors of HoxA13-DNA binding, primary screen, biochemical, fluorescence polarization, labeled oligonucleotide (AID 1185)
Study conditions: 15 min, higher = more signal, called active from +8 up or from −8 down

Molecule | Assayed system | z-score
COCCOC(=O)N1C(=O)[C@@]2(c3cc(C#CCCO)ccc31)[C@H](C(=O)N1CCCCCCC1)[C@H]1C(=O)O[C@H](c3ccccc3)[C@H](c3ccccc3)N1[C@@H]2c1ccccc1OCCO | Homeobox protein Hox-A13 (Mus musculus) (UniProt Q62424) | 3.5
CC1(C)C(=O)C(c2ccccc2)=C2CN3C(=O)N(CCc4ccccc4)C(=O)C3(Cc3ccc(C(F)(F)F)cc3)C=C21 (stereo not drawn) | Homeobox protein Hox-A13 (Mus musculus) (UniProt Q62424) | -1.55
COc1ccc(C#Cc2ccc3c(c2)[C@]2(C(=O)N3)[C@H](C(=O)N3CCCCCCC3)[C@H]3C(=O)O[C@H](c4ccccc4)[C@H](c4ccccc4)N3[C@@H]2c2ccc(O)cc2)cc1 | Homeobox protein Hox-A13 (Mus musculus) (UniProt Q62424) | 0.625
[N-]=[N+]=NCc1ccccc1C[C@]1(C(=O)N2CCOCC2)COC(c2ccc(OCCCO)cc2)=N1 | Homeobox protein Hox-A13 (Mus musculus) (UniProt Q62424) | -4.87
O=C(NCC(O)CO)[C@@]1(CCS(=O)(=O)c2ccccc2)COC(c2ccc(OCCCO)cc2)=N1 (stereo partly drawn) | Homeobox protein Hox-A13 (Mus musculus) (UniProt Q62424) | -5.1
NC(=O)[C@H]1[C@@H]2C(=O)O[C@@H](c3ccccc3)[C@@H](c3ccccc3)N2[C@@H](c2ccc(O)cc2)[C@]12C(=O)Nc1ccc(C#CC3=CCCCC3)cc12 | Homeobox protein Hox-A13 (Mus musculus) (UniProt Q62424) | -1.08
CC(C)CNC(=O)[C@@]1(C)c2ccccc2C(=O)N(Cc2cc(C(F)(F)F)cc(C(F)(F)F)c2)[C@H]1c1ccc(CO)cc1 | Homeobox protein Hox-A13 (Mus musculus) (UniProt Q62424) | -2.63
CCOC(=O)C1=CC[C@@H](c2ccccc2)N(S(=O)(=O)c2ccc(C)cc2)[C@H]1c1cccc(OC)c1 | Homeobox protein Hox-A13 (Mus musculus) (UniProt Q62424) | 0.892
CCOC(=O)C[C@H]1[C@H](OC(=O)c2ccc(-c3ccccc3)cc2)[C@@H](NC(=O)Cc2ccc(OC)cc2)c2cc(OCCCO)ccc2N1C(=O)Cc1ccc(OC)cc1 | Homeobox protein Hox-A13 (Mus musculus) (UniProt Q62424) | -1.32
CC(C)C(=C=CC[C@H](O)c1cccc(OCCO)c1)CCO | Homeobox protein Hox-A13 (Mus musculus) (UniProt Q62424) | -1.92
COCCOC(=O)N1C(=O)[C@@]2(c3cc(C#CCCO)ccc31)[C@H](C(N)=O)[C@H]1C(=O)O[C@H](c3ccccc3)[C@H](c3ccccc3)N1[C@@H]2c1ccc(OCCO)cc1 | Homeobox protein Hox-A13 (Mus musculus) (UniProt Q62424) | -1.24
O=C1OCCC=C[C@H]2OC34C=CCN(c5ccc(Cl)cc5)C(=O)[C@H]3N(CCCCCCO)C(=O)[C@@H]4C12 (stereo partly drawn) | Homeobox protein Hox-A13 (Mus musculus) (UniProt Q62424) | -5.62
CC(C)[C@H]1NC(=O)[C@@]23C(=O)N[C@@H](Cc4ccccc4)C2[C@H](C)[C@@]2(C)O[C@H]2C3/C=C/C/C=C\CNC(=O)[C@H](Cc2ccccc2)NC1=O (stereo partly drawn) | Homeobox protein Hox-A13 (Mus musculus) (UniProt Q62424) | -5.69

Values compiled from PubChem BioAssay.
